Molecular target: Aurora kinase C (Homo sapiens, UniProt Q9UQB9)
Sequence (Q9UQB9 whole entry): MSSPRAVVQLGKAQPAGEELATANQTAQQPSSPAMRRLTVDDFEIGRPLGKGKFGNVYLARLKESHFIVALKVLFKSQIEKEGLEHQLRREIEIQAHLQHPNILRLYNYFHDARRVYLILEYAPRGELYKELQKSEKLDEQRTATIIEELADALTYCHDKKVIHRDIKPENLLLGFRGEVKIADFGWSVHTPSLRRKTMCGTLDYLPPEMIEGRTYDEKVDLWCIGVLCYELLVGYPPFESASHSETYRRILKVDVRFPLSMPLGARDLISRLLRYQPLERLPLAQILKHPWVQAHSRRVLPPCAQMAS
quantity-measured: pKd
// pKd: -log10(molar conc.)

Form field pKd for item Oc1c2ccccc2c2c3c(cccc13)N=N2 on Aurora kinase C (Homo sapiens, UniProt Q9UQB9): 5.28

---

Target: UniProt Q13882
Sequence (Q13882 whole entry): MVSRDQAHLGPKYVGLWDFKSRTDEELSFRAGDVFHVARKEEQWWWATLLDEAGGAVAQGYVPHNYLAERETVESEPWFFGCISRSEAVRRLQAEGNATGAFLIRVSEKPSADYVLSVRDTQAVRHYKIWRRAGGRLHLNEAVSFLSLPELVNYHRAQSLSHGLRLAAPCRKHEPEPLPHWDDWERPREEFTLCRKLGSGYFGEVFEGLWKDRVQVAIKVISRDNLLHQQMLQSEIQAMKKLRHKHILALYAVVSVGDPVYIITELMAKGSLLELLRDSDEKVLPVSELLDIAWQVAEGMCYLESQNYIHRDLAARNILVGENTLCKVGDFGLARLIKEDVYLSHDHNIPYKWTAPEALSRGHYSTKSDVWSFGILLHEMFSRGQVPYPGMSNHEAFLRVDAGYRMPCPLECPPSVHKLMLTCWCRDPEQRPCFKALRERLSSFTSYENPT
quantity-measured: pKd
Give only the number. pKd is defined as minus log10 of concentration in molar units.

Per the records, this compound ( Oc1ccc(-c2nc(-c3ccc(F)cc3)c(-c3ccncc3)[nH]2)cc1 ) has pKd equal to 5.52

---

Molecular target: Casein kinase I isoform gamma-1 (Homo sapiens, UniProt Q9HCP0)
Sequence (Q9HCP0 whole entry, canonical isoform): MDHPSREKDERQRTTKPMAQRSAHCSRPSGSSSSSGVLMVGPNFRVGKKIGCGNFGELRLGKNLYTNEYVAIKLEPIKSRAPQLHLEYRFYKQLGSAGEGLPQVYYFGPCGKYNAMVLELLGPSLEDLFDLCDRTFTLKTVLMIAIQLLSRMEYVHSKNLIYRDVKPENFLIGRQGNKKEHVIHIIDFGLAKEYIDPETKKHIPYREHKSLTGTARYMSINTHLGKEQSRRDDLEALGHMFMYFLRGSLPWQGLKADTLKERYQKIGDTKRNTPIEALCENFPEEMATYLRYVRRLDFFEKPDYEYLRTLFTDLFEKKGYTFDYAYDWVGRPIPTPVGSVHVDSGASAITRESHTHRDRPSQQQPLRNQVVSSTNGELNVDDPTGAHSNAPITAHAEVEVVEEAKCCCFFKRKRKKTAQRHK
quantity-measured: pKd
The value called pKd is obtained by taking minus log10 of the concentration in mol/L.

The molecule Oc1c2ccccc2c2c3c(cccc13)N=N2 on Casein kinase I isoform gamma-1 (Homo sapiens, UniProt Q9HCP0): pKd was 5.43

---

For reference, Kd measured on Casein kinase I isoform gamma-1 (Homo sapiens, UniProt Q9HCP0):

Examples with answers:
> print(dat)
                                   molecule                        measurement.target  measured.result
1  Oc1ccc(-c2nc(-c3ccc(F)cc3)c(-c3ccncc3)[nH]2)cc1 [SB-202190]  Casein kinase I isoform gamma-1 (Homo sapiens, UniProt Q9HCP0)       Not Active
2  O=c1ncn2nc(Sc3ccc(F)cc3F)ccc2c1-c1c(Cl)cccc1Cl [NEFLAMAPIMOD]  Casein kinase I isoform gamma-1 (Homo sapiens, UniProt Q9HCP0)       Not Active
3  COc1cc2c(N3CCN(C(=O)Nc4ccc(OC(C)C)cc4)CC3)ncnc2cc1OCCCN1CCCCC1 [TANDUTINIB]  Casein kinase I isoform gamma-1 (Homo sapiens, UniProt Q9HCP0)       Not Active
4  Cc1ccc(NC(=O)c2ccc(CN3CCN(C)CC3)cc2)cc1Nc1nccc(-c2cccnc2)n1 [IMATINIB]  Casein kinase I isoform gamma-1 (Homo sapiens, UniProt Q9HCP0)       Not Active
5  C#Cc1cccc(Nc2ncnc3cc(OCCOC)c(OCCOC)cc23)c1 [ERLOTINIB]  Casein kinase I isoform gamma-1 (Homo sapiens, UniProt Q9HCP0)       Not Active
6  CCOc1cc2ncc(C#N)c(Nc3ccc(F)c(Cl)c3)c2cc1NC(=O)/C=C/CN(C)C [PELITINIB]  Casein kinase I isoform gamma-1 (Homo sapiens, UniProt Q9HCP0)       Not Active

Switching to the query record.
Recorded Kd for C[S+]([O-])c1ccc(-c2nc(-c3ccc(F)cc3)c(-c3ccncc3)[nH]2)cc1 (configuration not stated) [SB-203580] on Casein kinase I isoform gamma-1 (Homo sapiens, UniProt Q9HCP0) was Not Active

---

Biological target: Serine/threonine-protein kinase 36 (Homo sapiens, UniProt Q9NRP7)
Sequence (Q9NRP7 whole entry): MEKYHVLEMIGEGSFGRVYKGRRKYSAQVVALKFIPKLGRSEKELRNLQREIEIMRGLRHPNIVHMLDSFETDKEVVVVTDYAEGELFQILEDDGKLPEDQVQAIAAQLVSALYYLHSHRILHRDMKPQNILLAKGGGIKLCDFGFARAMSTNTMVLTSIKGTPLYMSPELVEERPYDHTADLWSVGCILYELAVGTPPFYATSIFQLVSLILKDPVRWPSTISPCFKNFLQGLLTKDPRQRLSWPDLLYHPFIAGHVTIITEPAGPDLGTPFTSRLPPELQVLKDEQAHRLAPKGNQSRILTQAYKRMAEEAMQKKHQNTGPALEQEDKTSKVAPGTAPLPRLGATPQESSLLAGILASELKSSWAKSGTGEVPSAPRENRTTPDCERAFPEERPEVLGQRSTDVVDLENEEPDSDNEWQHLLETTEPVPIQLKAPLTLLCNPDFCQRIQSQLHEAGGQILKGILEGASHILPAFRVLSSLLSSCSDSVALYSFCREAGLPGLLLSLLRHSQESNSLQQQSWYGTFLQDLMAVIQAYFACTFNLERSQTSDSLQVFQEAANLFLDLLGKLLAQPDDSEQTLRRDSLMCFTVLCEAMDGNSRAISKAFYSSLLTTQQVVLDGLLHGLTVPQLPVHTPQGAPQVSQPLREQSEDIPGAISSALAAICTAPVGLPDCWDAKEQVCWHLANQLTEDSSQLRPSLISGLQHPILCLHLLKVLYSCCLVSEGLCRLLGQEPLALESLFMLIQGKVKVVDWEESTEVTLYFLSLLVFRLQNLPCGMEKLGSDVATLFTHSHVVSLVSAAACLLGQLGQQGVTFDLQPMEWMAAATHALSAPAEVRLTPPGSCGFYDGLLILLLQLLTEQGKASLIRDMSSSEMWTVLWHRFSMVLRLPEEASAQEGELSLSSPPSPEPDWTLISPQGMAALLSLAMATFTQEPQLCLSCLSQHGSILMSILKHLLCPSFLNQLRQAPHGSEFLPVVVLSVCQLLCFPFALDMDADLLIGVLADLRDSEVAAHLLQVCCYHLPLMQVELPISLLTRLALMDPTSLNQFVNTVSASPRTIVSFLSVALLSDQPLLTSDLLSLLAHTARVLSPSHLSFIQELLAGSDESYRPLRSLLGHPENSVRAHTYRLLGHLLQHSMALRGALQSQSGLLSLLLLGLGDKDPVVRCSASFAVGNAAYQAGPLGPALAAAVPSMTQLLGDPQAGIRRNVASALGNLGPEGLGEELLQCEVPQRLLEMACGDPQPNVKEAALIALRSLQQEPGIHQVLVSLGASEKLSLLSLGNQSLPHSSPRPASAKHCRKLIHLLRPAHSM
quantity-measured: Kd

> print(dat)
                               query.smiles  quantity.measured  measured.result
1  CC[C@H](CO)Nc1nc(NCc2ccccc2)c2ncn(C(C)C)c2n1                 Kd       Not Active
2  O=c1ncn2nc(Sc3ccc(F)cc3F)ccc2c1-c1c(Cl)cccc1Cl                 Kd       Not Active
3  COc1cc2c(N3CCN(C(=O)Nc4ccc(OC(C)C)cc4)CC3)ncnc2cc1OCCCN1CCCCC1                 Kd       Not Active
4  Cc1ccc(NC(=O)c2ccc(CN3CCN(C)CC3)cc2)cc1Nc1nccc(-c2cccnc2)n1                 Kd       Not Active
5  C#Cc1cccc(Nc2ncnc3cc(OCCOC)c(OCCOC)cc23)c1                 Kd       Not Active

// next item, Kd requested
Sample Oc1c2ccccc2c2c3c(cccc13)N=N2 ; Kd observed: Not Active

---

The following compounds each carry a recorded Kd for Tyrosine-protein kinase Fyn (Homo sapiens, UniProt P06241).

// solved cases for Kd follow
> print(dat)
                                   compound  measured.result
1  COc1cc2c(N3CCN(C(=O)Nc4ccc(OC(C)C)cc4)CC3)ncnc2cc1OCCCN1CCCCC1       Not Active
2  C#Cc1cccc(Nc2ncnc3cc(OCCOC)c(OCCOC)cc23)c1       Not Active
3              Oc1c2ccccc2c2c3c(cccc13)N=N2       Not Active
4  Oc1ccc(-c2nc(-c3ccc(F)cc3)c(-c3ccncc3)[nH]2)cc1       Not Active
5  C[S+]([O-])c1ccc(-c2nc(-c3ccc(F)cc3)c(-c3ccncc3)[nH]2)cc1 (configuration not stated)       Not Active

Record CC[C@H](CO)Nc1nc(NCc2ccccc2)c2ncn(C(C)C)c2n1 / Tyrosine-protein kinase Fyn (Homo sapiens, UniProt P06241), Kd recorded as Not Active

So the reported Kd for O=c1ncn2nc(Sc3ccc(F)cc3F)ccc2c1-c1c(Cl)cccc1Cl , on Tyrosine-protein kinase Fyn (Homo sapiens, UniProt P06241), turned out to be Not Active

---

Target: Calcium/calmodulin-dependent protein kinase type 1 (Homo sapiens)
Sequence (Q14012 whole entry): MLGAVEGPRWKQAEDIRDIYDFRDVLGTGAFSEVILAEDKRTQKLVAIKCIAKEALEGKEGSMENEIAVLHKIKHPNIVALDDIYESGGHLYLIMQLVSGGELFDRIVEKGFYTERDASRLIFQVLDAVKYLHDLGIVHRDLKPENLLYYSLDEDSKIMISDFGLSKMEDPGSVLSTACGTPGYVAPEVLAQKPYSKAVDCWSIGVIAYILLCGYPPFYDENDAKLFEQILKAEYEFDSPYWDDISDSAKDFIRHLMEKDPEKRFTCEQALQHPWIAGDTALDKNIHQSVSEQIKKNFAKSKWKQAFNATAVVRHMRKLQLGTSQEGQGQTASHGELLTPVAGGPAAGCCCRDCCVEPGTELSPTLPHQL
quantity-measured: Kd (µM)
The reply should be a number in µM, with the unit left off.

Entry Oc1c2ccccc2c2c3c(cccc13)N=N2 ; assay system Calcium/calmodulin-dependent protein kinase type 1 (Homo sapiens); Kd recorded at 4.1

---

Endpoint: Kd. System: MAP kinase-interacting serine/threonine-protein kinase 2 (Homo sapiens, UniProt Q9HBH9). Items follow.
Sequence (Q9HBH9 whole entry): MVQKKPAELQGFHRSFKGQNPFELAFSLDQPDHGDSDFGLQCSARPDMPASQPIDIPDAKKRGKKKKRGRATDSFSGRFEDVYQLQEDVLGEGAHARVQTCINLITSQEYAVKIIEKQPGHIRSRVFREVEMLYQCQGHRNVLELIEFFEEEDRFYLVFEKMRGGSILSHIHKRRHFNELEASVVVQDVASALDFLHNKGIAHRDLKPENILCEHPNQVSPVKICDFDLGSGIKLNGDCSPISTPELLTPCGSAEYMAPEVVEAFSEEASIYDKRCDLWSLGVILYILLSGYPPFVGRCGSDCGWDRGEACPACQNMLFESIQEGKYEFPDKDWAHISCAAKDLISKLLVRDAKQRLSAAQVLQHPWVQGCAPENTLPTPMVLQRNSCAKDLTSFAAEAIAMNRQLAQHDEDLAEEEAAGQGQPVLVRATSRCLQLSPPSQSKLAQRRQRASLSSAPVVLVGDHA

Example compounds with recorded Kd:
> print(dat)
                                   compound  quantity.measured  measured.result
1  COc1cc2c(N3CCN(C(=O)Nc4ccc(OC(C)C)cc4)CC3)ncnc2cc1OCCCN1CCCCC1                 Kd       Not Active
2  Oc1ccc(-c2nc(-c3ccc(F)cc3)c(-c3ccncc3)[nH]2)cc1                 Kd       Not Active
3  CCOc1cc2ncc(C#N)c(Nc3ccc(F)c(Cl)c3)c2cc1NC(=O)/C=C/CN(C)C                 Kd       Not Active
4  O=c1ncn2nc(Sc3ccc(F)cc3F)ccc2c1-c1c(Cl)cccc1Cl                 Kd       Not Active
5  Cc1ccc(NC(=O)c2ccc(CN3CCN(C)CC3)cc2)cc1Nc1nccc(-c2cccnc2)n1                 Kd       Not Active
6  C[S+]([O-])c1ccc(-c2nc(-c3ccc(F)cc3)c(-c3ccncc3)[nH]2)cc1 (configuration not stated)                 Kd       Not Active

Query compound follows.
Let me check: CC[C@H](CO)Nc1nc(NCc2ccccc2)c2ncn(C(C)C)c2n1 , system MAP kinase-interacting serine/threonine-protein kinase 2 (Homo sapiens, UniProt Q9HBH9), measured Kd is Not Active
